Biological target: mAChR M4 (UniProt P08173)
Construct: hM1 and hM4 cDNAs were purchased from Missouri S&T cDNA Resource
Sequence (P08173 1-479): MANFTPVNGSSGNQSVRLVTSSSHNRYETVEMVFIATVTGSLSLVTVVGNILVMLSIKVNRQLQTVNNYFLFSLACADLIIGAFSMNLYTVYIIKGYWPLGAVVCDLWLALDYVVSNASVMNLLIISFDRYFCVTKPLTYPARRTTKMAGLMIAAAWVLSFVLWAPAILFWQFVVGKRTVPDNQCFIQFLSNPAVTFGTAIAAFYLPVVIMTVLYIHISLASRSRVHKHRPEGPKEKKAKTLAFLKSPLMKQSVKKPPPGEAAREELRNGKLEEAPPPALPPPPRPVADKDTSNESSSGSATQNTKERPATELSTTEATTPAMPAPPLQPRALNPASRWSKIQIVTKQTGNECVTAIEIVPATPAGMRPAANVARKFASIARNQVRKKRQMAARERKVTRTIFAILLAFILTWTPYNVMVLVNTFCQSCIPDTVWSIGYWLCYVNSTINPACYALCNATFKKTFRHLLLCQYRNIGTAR
Test: mAChR M4 cell-based functional assay (calcium mobilization, Fluo-4, FDSS)
Details: % ACh maximum at 30 μM
Emax (%)* values, listed per item
I only need the number, in %, no unit after it.

API: value(readout= Emax (%)*, system= mAChR M4 (UniProt P08173), query= `Cc1ccc(CNc2nn(C)c3c2sc2nc(C)cc(C)c23)c(C)c1` )
57

One more molecule: `Cc1cc(C)c2c(n1)sc1c(NCC3CCN(C(=O)OC(C)(C)C)CC3)nn(C)c12`
27

One more molecule: `CCOC(=O)CNc1n[nH]c2c1sc1nc(C)cc(C)c12`
50

One more molecule: `Cc1ccnc2sc3c(NCc4ccccc4)nn(C)c3c12`
75

One more molecule: `COc1ccc(CNc2nn(C)c3c2sc2nc(C)ccc23)cc1`
63

One more molecule: `Cc1cc(C)c2c(n1)sc1c(NCc3ccco3)nn(CCO)c12`
67

One more molecule: `Cc1csc(CNc2nn(C)c3c2sc2nc(C)cc(C)c23)n1`
53
